Measured values drawn from paper PMC5220248 for this set.

Conditions: human, serum
Residues, ends and D or L forms follow the SMILES beside them.
readout_name: half-life

[
  {
    "compound": "C[C@@H]1NC(=O)[C@H](C)NC(=O)[C@@H]2CCCN2C(=O)[C@H](Cc2ccc(O)cc2)NC(=O)[C@H](CCCNC(=N)N)NC(=O)[C@H](Cc2ccc(O)cc2)NC(=O)[C@H](CO)NC1=O [cRBP, cyclo-YPAASYR] (cyclo(AASYRYP))",
    "readout_name": "half-life",
    "endpoint_result": "~30 h"
  }
]
